experimentalDetails: Solubility of the compound in FaSSIF solution at 100 uM after overnight incubation by UPLC/DAD analysis
Assay type: physicochemical
measuredAttribute: solubility at 100 µM (µM)

* CC(C)(C)c1ccc(N2C(=O)c3ccccc3[C@H](C(=O)O)[C@H]2c2ccc3c(c2)OCCO3)cc1Cl | 151
* CC(C)(C)c1ccc(N2C(=O)c3cc(F)ccc3[C@H](CC(=O)O)[C@H]2c2ccc3c(c2)OCCO3)cc1Cl | 187
